Hello, the source for this data is patent US20200377573A1, in case you need it.

Each item that follows carries a reported IC50 (nM) for HTRA1 (cat), decomposition rate of substrate peptide H2-Opt.
Target: HTRA1 (cat) (human, UniProt Q92743 158-373)
Sequence (Q92743 158-373, form in doubt): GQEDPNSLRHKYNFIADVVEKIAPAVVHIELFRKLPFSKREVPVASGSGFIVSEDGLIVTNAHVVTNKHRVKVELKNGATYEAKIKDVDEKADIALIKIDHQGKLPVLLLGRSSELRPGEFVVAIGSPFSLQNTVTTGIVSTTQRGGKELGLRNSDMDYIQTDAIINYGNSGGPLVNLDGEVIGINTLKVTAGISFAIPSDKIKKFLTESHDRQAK
Assay: cell-based or functional assay
Unit nM implied. Number only.

Some binders with recorded IC50 (nM) for HTRA1 (cat), decomposition rate of substrate peptide H2-Opt:
| Binder | Result unit | Value |
| --- | --- | --- |
| peptide derivative H321AT (designed binder) DPQFGLFSKYRTPNCSDFDGMACYAFYEPVCGSDMSTYANECTLCMKIREGGHNIKIIRNGPCGG | nM | 46 |
| peptide H308 (designed binder) DPQFGLFSKYRTPNCSDHAGMACVALYEPVCGSDMSTYENECVLCMKIREGGHNIKIIRNGPCGG | nM | 37 |

Next up:
Exercise: // Input: peptide H321 (designed binder) DPQFGLFSKYRTPNCSDFDGMACYAFYEPVCGSDMSTYMNECALCMKIREGGHNIKIIRNGPCGG . Output its IC50 (nM) for HTRA1 (cat), decomposition rate of substrate peptide H2-Opt only.
Solution: 48
